The values you see were collected from ChEMBL document CHEMBL1614629.

- procedure_details: Volume of distribution at steady state in dog after iv administration
- Type: ADME, organism-based, Canis lupus familiaris
- conditions_used: in vivo, read-out: Vdss
Recorded Vd, one value per entry.

compound: Cc1cccc(C)c1NC(=O)NCCCNC(C)C
Vd (L/kg): 1.2
--
compound: CO[C@@]1(NC(=O)CSCC#N)C(=O)N2C(C(=O)O)=C(CSc3nnnn3C)CS[C@@H]21
Vd (L/kg): 0.24
--
compound: CC[C@]1(O)C[C@@H]2CN(CCc3c([nH]c4ccccc34)[C@@](C(=O)OC)(c3cc4c(cc3OC)N(C)[C@H]3[C@@](O)(C(=O)OC)[C@H](OC(C)=O)[C@]5(CC)C=CCN6CC[C@]43[C@@H]65)C2)C1
Vd (L/kg): 2.3
--
compound: O=C(O)Cc1ccccc1Nc1c(Cl)cccc1Cl
Vd (L/kg): 0.23
--
compound: CO/N=C(\C(=O)N[C@@H]1C(=O)N2C(C(=O)O)=C(CSc3nc(=O)c(=O)[nH]n3C)CS[C@H]12)c1csc(N)n1
Vd (L/kg): 0.24
--
compound: N=C(N)N1CCC[C@@H](CNC(=O)C[C@H](NS(=O)(=O)c2ccc3ccccc3c2)C(=O)N(CC(=O)O)C2CC2)C1 [NAPSAGATRAN ANHYDROUS]
Vd (L/kg): 0.69
--
compound: Nc1nc(/C(=N/O)C(=O)N[C@@H]2C(=O)N3C(C(=O)O)=C(/C=C4\CCN(CC(F)(F)F)C4=O)CS[C@H]23)cs1
Vd (L/kg): 0.24

---

- procedure_details: Clearance in human after iv administration
- Type: ADME, organism-based
- conditions_used: in vivo
Recorded clearance, one value per entry.

structure_smiles_string: COC(=O)[C@H]1[C@@H](OC(=O)c2ccccc2)C[C@@H]2CC[C@H]1N2C
clearance: 1.92 L/h/kg
--
structure_smiles_string: CO/N=C(\C(=O)N[C@@H]1C(=O)N2C(C(=O)[O-])=C(C[N+]34CCC(C(N)=O)(CC3)CC4)CS[C@H]12)c1nsc(N)n1
clearance: 0.09 L/h/kg
--
structure_smiles_string: CC[C@]1(O)C[C@H]2CN(CCc3c([nH]c4ccccc34)[C@@](C(=O)OC)(c3cc4c(cc3OC)N(C=O)[C@H]3[C@@](O)(C(=O)OC)[C@H](OC(C)=O)[C@]5(CC)C=CCN6CC[C@]43[C@@H]65)C2)C1
clearance: 0.108 L/h/kg

---

- procedure_details: Clearance in human after iv administration
- Format: ADME, organism-based
- conditions_used: in vivo
Lab note: compare clearance with 0.2 L/h/kg, writing True if less and False if equal or more.

compound: CN1CCN(c2c(F)cc3c(=O)c(C(=O)O)cn(CCF)c3c2F)CC1 [FLEROXACIN]
answer_label: True
--
compound: CC1(C)O[C@@H]2C[C@H]3[C@@H]4C[C@H](F)C5=CC(=O)C=C[C@]5(C)[C@H]4[C@@H](O)C[C@]3(C)[C@]2(C(=O)CO)O1 [FLUNISOLIDE]
answer_label: False
--
compound: CCCC(CCC)C(=O)O [VALPROIC ACID]
answer_label: True
--
compound: CC(C)(C)S(=O)(=O)C[C@@H](Cc1ccccc1)C(=O)N[C@@H](Cc1cnc[nH]1)C(=O)N[C@@H](CC1CCCCC1)[C@@H](O)[C@@H](O)C1CC1
answer_label: False
--
compound: C[C@@H]1[C@H](O)[C@@H](C)/C=C/C=C/C=C/C=C/C=C/C=C/C=C/[C@H](O[C@@H]2O[C@H](C)[C@@H](O)[C@H](N)[C@@H]2O)C[C@@H]2O[C@](O)(C[C@@H](O)C[C@@H](O)[C@H](O)CC[C@@H](O)C[C@@H](O)CC(=O)O[C@H]1C)C[C@H](O)[C@H]2C(=O)O [AMPHOTERICIN B]
answer_label: True
--
compound: O=c1[nH]cnc2c1ncn2[C@H]1CC[C@@H](CO)O1 [DIDANOSINE]
answer_label: False
--
compound: O=c1ccc2ccccc2o1 [COUMARIN]
answer_label: False
--
compound: Cc1cc(=O)n(-c2ccccc2)n1C [ANTIPYRINE]
answer_label: True
--
compound: N[C@H](C(=O)O)[C@@H]1CC(Cl)=NO1 [ACIVICIN]
answer_label: True
--
compound: CN(C)CCCC1(c2ccc(F)cc2)OCc2cc(C#N)ccc21 (stereo not given) [CITALOPRAM]
answer_label: False
--
compound: CC(C)N(CCC(C(N)=O)(c1ccccc1)c1ccccn1)C(C)C (stereo not given) [DISOPYRAMIDE]
answer_label: True
--
compound: CO[C@@]1(NC(=O)C2SC(=C(C(N)=O)C(=O)O)S2)C(=O)N2C(C(=O)O)=C(CSc3nnnn3C)CS[C@@H]21 (stereo not given in full) [CEFOTETAN]
answer_label: True
--
compound: CN(C)C(=O)CCSC(SCCC(=O)O)c1cccc(/C=C/c2ccc3ccc(Cl)cc3n2)c1 (stereo not given) [MK-571]
answer_label: True
--
compound: CN1C(=O)OC(C)(C)C1=O [TRIMETHADIONE]
answer_label: True
--
compound: Nc1nc(/C(=N/O)C(=O)N[C@@H]2C(=O)N3C(C(=O)O)=C(/C=C4\CCN(CC(F)(F)F)C4=O)CS[C@H]23)cs1 [RO 25-6833]
answer_label: True
--
compound: CC(=O)CC(c1ccccc1)c1c(O)c2ccccc2oc1=O (stereo not given) [WARFARIN]
answer_label: True
--
compound: COCCc1ccc(OCC(O)CNC(C)C)cc1 (stereo not given) [METOPROLOL]
answer_label: False
--
compound: CC1CCCC(C)N1CCCC(O)(c1ccccc1)c1ccccn1 (stereo not given) [PIRMENOL]
answer_label: True
--
compound: CCC1(C)CC(=O)NC1=O (stereo not given) [ETHOSUXIMIDE]
answer_label: True
--
compound: CCOC(=O)C1(c2ccccc2)CCN(C)CC1 [MEPERIDINE]
answer_label: False
--
compound: CO[C@@]1(NC(=O)C(C(=O)[O-])c2ccc(O)cc2)C(=O)N2C(C(=O)[O-])=C(CSc3nnnn3C)CO[C@@H]21.[Na+].[Na+] (stereo not given in full) [MOXALACTAM DISODIUM]
answer_label: True
--
compound: Cc1nc(=O)c(C#N)c(NCc2cccnc2)[nH]1 [PELRINONE]
answer_label: False
--
compound: Cc1cc(O)c(C(=O)N[C@@H](C(=O)N[C@@H]2C(=O)N3C(C(=O)O)=C(CSc4nnnn4C)CS[C@H]23)c2ccc(O)cc2)cn1 [CEFPIRAMIDE]
answer_label: True
--
compound: O=C1NC(=O)C(c2ccccc2)(c2ccccc2)N1 [PHENYTOIN]
answer_label: True
--
compound: Cc1cccnc1NS(=O)(=O)c1ccc(C#Cc2ccc(O)c(C(=O)O)c2)cc1 [SUSALIMOD]
answer_label: True
--
compound: c1ccc(C2(N3CCCCC3)CCCCC2)cc1 [PHENCYCLIDINE]
answer_label: False
--
compound: N[C@@H](Cc1ccc(O)c(O)c1)C(=O)O [LEVODOPA]
answer_label: False
--
compound: CC(C)NCC(O)COc1cccc2ccccc12 (stereo not given) [PROPRANOLOL]
answer_label: False
--
compound: Cc1c(C)c2c(c(C)c1O)CCC(C)(COc1ccc(CC3SC(=O)NC3=O)cc1)O2 (stereo not given) [TROGLITAZONE]
answer_label: False
--
compound: O=P(O)(O)C(Sc1ccc(Cl)cc1)P(=O)(O)O [TILUDRONIC ACID]
answer_label: True
--
compound: O=C(O)Cc1ccccc1Nc1c(Cl)cccc1Cl [DICLOFENAC]
answer_label: False
--
compound: C[C@@H](O)[C@H]1C(=O)N2C(C(=O)O)=C(COC(N)=O)S[C@H]12
answer_label: False
--
compound: C[C@]12C=CC(=O)C=C1CC[C@@H]1[C@@H]2C(=O)C[C@@]2(C)[C@H]1CC[C@]2(O)C(=O)CO [PREDNISONE]
answer_label: False
--
compound: COCCOC(=O)C1=C(C)NC(C)=C(C(=O)OC(C)C)C1c1cccc([N+](=O)[O-])c1 (stereo not given) [NIMODIPINE]
answer_label: False
--
compound: Cc1cccc(C)c1NC(=O)NCCCNC(C)C
answer_label: False
